From: patent US8729078B2

The molecules below have reported IC50 for Btk (Homo sapiens (Human)).
experimentalReadout: IC50 (nM)

A selection of reference data follows.
INSERT INTO assay_data (molecule, value) VALUES
  ('Cn1ccc(Nc2nn(-c3cccc(-n4ncc5cc(C(C)(C)C)cc(F)c5c4=O)c3CO)cc2C(N)=O)n1 [Compound I-28]', 0.22),
  ('CC(C)(CN1CCC1)Oc1ccc(Nc2nn(-c3cccc(-n4ncc5cc(C(C)(C)C)cc(F)c5c4=O)c3CO)cc2C(N)=O)nc1 [Compound I-24]', 0.18),
  ('Cc1ccc(Nc2nn(-c3cccc(-n4ncc5cc(C(C)(C)C)ccc5c4=O)c3CO)cc2C(N)=O)nc1 [Compound I-37]', 1.13);

[a] CC(C)(C)c1cc(F)c2c(=O)n(-c3cccc(-n4cc(C(N)=O)c(Nc5ccc(Cl)cn5)n4)c3CO)ncc2c1 [Compound I-23]
[b] CC(C)(C)c1cc(F)c2c(=O)n(-c3cccc(-n4cc(C(N)=O)cn4)c3CO)ncc2c1 [Compound I-41]
Challenge: Which has the smaller recorded IC50, a or b ? Reply briefly: the label of your chosen item.
Response given: a

----------
Assay system Btk (Homo sapiens (Human), UniProt Q06187); read-out recorded as IC50.
experimentalReadout: IC50 (nM)

INSERT INTO measurements (compound, targetortestsystem, unit, value) VALUES
  ('CC(C)(C)c1cc(F)c2c(=O)n(-c3cccc(-n4cc(C(N)=O)c5cncnc54)c3CO)ncc2c1 [Compound I-42]', 'Btk (Homo sapiens (Human), UniProt Q06187)', 'nM', 7.32);

[a] Cn1cc(-c2cccc(-n3ccc4cc(C5CC5)cc(F)c4c3=O)c2CO)cc1C(N)=O [Compound I-13]
[b] CC(C)(C)c1cc(F)c2c(=O)n(-c3cccc(-n4cc(C(N)=O)c(Nc5ccc(C#N)cn5)n4)c3CO)ncc2c1 [Compound I-39]
[c] CC(C)(C)c1cc(F)c2c(=O)n(-c3cccc(-n4cc(C(N)=O)c5ccc(N6CCOCC6)nc54)c3CO)ncc2c1 [Compound I-44]
[d] CC(C)(C)c1cc(F)c2c(=O)n(-c3cccc(-n4cc(C(N)=O)c(Nc5cnccn5)n4)c3CO)ncc2c1 [Compound I-29]
Challenge: Sort entries by IC50 from minimum to maximum value. Put the labels in the requested order and write them down.
Response given: b, d, c, a
(b: 0.18 nM, d: 0.43 nM, c: 10.3 nM, a: 39.4 nM)

----------
- System: Ramos cells
- assayInfo: Inhibition of B-cell activation, B cell FLIPR assay in Ramos cells (anti-IgM stimulated calcium increase)
- Assay type: cell-based
- recordedConditions: Homo sapiens, anti-IgM stimulated Ca2+ signaling
pIC50: −log10 of the molar value.
experimentalReadout: pIC50

INSERT INTO measurements (compound, value) VALUES
  ('CC(C)(C)c1ccc2c(=O)n(-c3cccc(-c4nc(C(N)=O)cs4)c3CO)ncc2c1 [Compound I-2]', 5.80),
  ('CC(C)(C)c1cc(F)c2c(=O)n(-c3cccc(-n4cc(C(N)=O)c5cccnc54)c3CO)ncc2c1 [Compound I-15]', 7.40);

[1] Cn1cc(-c2cccc(-n3ncc4cc(C(C)(C)C)ccc4c3=O)c2CO)nc1C(N)=O [Compound I-1]
[2] Cn1cc(-c2ccnc(-n3ncc4cc(C(C)(C)C)cc(F)c4c3=O)c2CO)cc1C(N)=O [Compound I-16]
Challenge: Determine, for 1 and 2 , which has the greater value of pIC50. Mark your answer with the label of the selected entry.
Response given: 2
